Test system: SNB-19
Test: NCI tumour cell line growth inhibition, 48 h
The source made the active and inactive calls. Rule as the data show it: active = GI50 up to about 1.1 µM and inactive = higher.
The reply should be one of these categories: yes (1) = active, no (0) = inactive

CNC(c1ccncc1)C(NC)c1ccncc1 (centres undefined) :: no (0)
Cc1c(/C=N/NS(=O)(=O)c2ccccc2)no[n+]1[O-] :: no (0)
O=C1C(=C(C(F)(F)Cl)C(F)(F)Cl)C2CCC1C2 (centres undefined) :: no (0)

Req: // outcome(item) with item = "CC1(C)[C@@H]2CC[C@@]1(C)[C@@H]1O[C@@H](O[C@@H](CN)c3cc(Cl)c(OCc4ccccc4)c(OCc4ccccc4)c3)C[C@H]21"
Resp: yes (1)

Req: // outcome(item) with item = "Cc1c2cc[n+](C)cc2c(C)c2c1[nH]c1ccccc12"
Resp: yes (1)

Req: // outcome(item) with item = "O=C(O)CSc1ccc(N=C=S)cc1"
Resp: no (0)

====

Item-by-item account of GI50
Tested on: CAKI-1
Test: NCI tumour cell line growth inhibition, 48 h
The source made the active and inactive calls. Rule as the data show it: active = GI50 up to about 1.1 µM and inactive = higher.

Consider the worked cases shown below.
CC(=O)NCC1OC2COC(c3ccccc3)OC2C(NC(=O)c2ccccc2)C1OC(=O)c1ccccc1 (stereo not drawn) :: > 100 µM (inactive)
O=C(CC(C(=O)c1cccs1)c1ccccc1)c1ccccc1O (stereo not drawn) :: 8.95 µM (inactive)

Consider the record given below.
Req: Fill in reported GI50 for this entry: "ClC(Cl)(Cl)C(N1CCN(c2ccccc2)CC1)N1CCN(c2ccccc2)CC1"
Resp: > 100 µM (inactive)

====

Tested on: A498
Assay: NCI tumour cell line growth inhibition, 48 h
Activity calls are given as the source filed them. Rule as the data show it: active = GI50 up to about 1.1 µM and inactive = higher.
OBSERVED PROPERTY: GI50

Req: Fill in reported GI50 for this entry: "COC(=O)/C(C#N)=C1\CCc2ccccc21"
Resp: > 100 µM (inactive)

Req: Fill in reported GI50 for this entry: "Cc1c[n+]([O-])c2ccccc2[n+]1[O-]"
Resp: > 100 µM (inactive)

Req: Fill in reported GI50 for this entry: "O=C1C=CC(S(=O)(=O)C2=C/C(=C/Nc3ccc(Cl)cc3)C(=O)C=C2)=C/C1=C/Nc1ccc(Cl)cc1"
Resp: > 100 µM (inactive)

Req: Fill in reported GI50 for this entry: "Cn1c2c(c3ccccc31)CCN1OCC=C[C@@H](C(=O)O)[C@@H]21"
Resp: > 100 µM (inactive)

Req: Fill in reported GI50 for this entry: C/C(=N/Nc1ccc([N+](=O)[O-])cc1[N+](=O)[O-])C(CC(C(=O)NCc1ccccc1)/C(C)=N\Nc1ccc([N+](=O)[O-])cc1[N+](=O)[O-])C(=O)NCc1ccccc1 (stereo unspecified)
Resp: 14.8 µM (inactive)

Req: Fill in reported GI50 for this entry: "O=C(O)CSc1ccc(N=C=S)cc1"
Resp: 52.2 µM (inactive)

====

Test system: SK-OV-3
Assay: NCI tumour cell line growth inhibition, 48 h
The source made the active and inactive calls. Rule as the data show it: active = GI50 up to about 1.1 µM and inactive = higher.
The reply should be one of these categories: active, inactive

Example cases with answers are listed next.
CC(=O)Nc1ccc2[nH]c(C(=O)N3CC(CCl)c4c3cc(N)c3ccccc43)cc2c1 (configuration not stated) :: active
CC1C(=O)OC2CC[N+]3([O-])CC=C(COC(=O)C(C)(O)C1(C)O)C23 (configuration not stated) :: inactive
COC(=O)/C=C(\C)CC(O)/C=C(\C)CCC=C(C)C (configuration not stated) :: inactive
CC(=O)Oc1ccc(-c2nnc(-c3ccc(OC(C)=O)cc3)nn2)cc1 :: inactive
Cc1ccsc1/C=N/NC1=NCCN1 :: inactive
C/C(=N/Nc1ccc([N+](=O)[O-])cc1[N+](=O)[O-])C(CC(C(=O)NCc1ccccc1)/C(C)=N\Nc1ccc([N+](=O)[O-])cc1[N+](=O)[O-])C(=O)NCc1ccccc1 (configuration not stated) :: inactive

Please look at the following molecule next.
Req: // outcome(item) with item = FC(F)(F)c1cc(C2SCc3nc4ccccc4n32)cc(C(F)(F)F)c1 (configuration not stated)
Resp: inactive

====

Tested on: Hs-578T
Test: NCI tumour cell line growth inhibition, 48 h
Active and inactive are the calls of the source. Cut-off read from the data, not from the text of the source: active = GI50 up to about 1.1 µM and inactive = higher.
Item-by-item account of GI50

Consider the worked cases shown below.
COC(CNC(=O)C(C)NC(=O)C(C)NC(=O)c1ccccc1)OC (stereo not given) :: > 100 µM (inactive)
COC(=NCCC1=CCCCC1)OC :: > 100 µM (inactive)
O=C1c2ccccc2C2C1C(c1ccccc1)C1(Cc3ccccc3C1=O)C2c1ccccc1 (stereo not given) :: > 100 µM (inactive)

Consider the record given below.
Req: Fill in reported GI50 for this entry: "Nc1nc(-c2cccc([N+](=O)[O-])c2)cc(-c2cc(-c3cccc([N+](=O)[O-])c3)nc(N)n2)n1"
Resp: > 100 µM (inactive)

====

Tested on: SF-539
Test: NCI tumour cell line growth inhibition, 48 h
The source made the active and inactive calls. No stated cut-off is given here; in the data, active = GI50 up to about 1.1 µM and inactive = higher.
OBSERVED PROPERTY: GI50

O=C1CN=C(c2ccccc2)c2ccncc2N1 :: > 100 µM (inactive)
CC(=O)Oc1ccc(-c2nnc(-c3ccc(OC(C)=O)cc3)nn2)cc1 :: > 100 µM (inactive)
O=C(Cc1nc2ccc(C(=O)c3ccccc3)cc2nc1O)C(=O)Nc1ccc(C(F)(F)F)cc1[N+](=O)[O-] :: 53.3 µM (inactive)

Req: Find GI50 for "Cc1ccc2c(=O)c3ccccc3sc2c1" on SF-539 and write it down.
Resp: > 100 µM (inactive)

Req: Find GI50 for C=C1C(=O)OC2/C=C(/CO)C3(O)CC(O)C(C)(CC(OC(=O)/C(C)=C/C)C12)O3 (configuration not stated) on SF-539 and write it down.
Resp: 23.9 µM (inactive)

Req: Find GI50 for CN1N=C(c2ccncc2)OC1c1cccc(C(F)(F)F)c1 (configuration not stated) on SF-539 and write it down.
Resp: 27.5 µM (inactive)

Req: Find GI50 for CC1CN=C(N(Cc2ccc(F)cc2)C(=O)Nc2ccc(Cl)cc2)S1 (configuration not stated) on SF-539 and write it down.
Resp: 30.5 µM (inactive)

Req: Find GI50 for CCc1cccc(CC)c1NC(=O)C1=CNC(C)=C(C(=O)Nc2c(CC)cccc2CC)C1c1ccc(O)c(OC)c1 (configuration not stated) on SF-539 and write it down.
Resp: 17.6 µM (inactive)

====

Tested on: M14
Assay: NCI tumour cell line growth inhibition, 48 h
Active and inactive are the calls of the source. Cut-off read from the data, not from the text of the source: active = GI50 up to about 1.1 µM and inactive = higher.
Item-by-item account of GI50

Req: Fill in reported GI50 for this entry: "O=[N+]([O-])c1cc(F)ccc1Sc1ccccc1"
Resp: > 10 µM (inactive)

Req: Fill in reported GI50 for this entry: "CCc1nc2c(O)ccc(O)c2nc1C"
Resp: 15 µM (inactive)

Req: Fill in reported GI50 for this entry: "O=C1C=CC(S(=O)(=O)C2=C/C(=C/Nc3ccc(Cl)cc3)C(=O)C=C2)=C/C1=C/Nc1ccc(Cl)cc1"
Resp: > 100 µM (inactive)

Req: Fill in reported GI50 for this entry: "COc1ccc(-n2c(N)c(C#N)c(C#N)c2-c2ccccc2)cc1"
Resp: > 100 µM (inactive)

Req: Fill in reported GI50 for this entry: "Cc1ccc(-c2c(C#N)c(-c3ccc([N+](=O)[O-])cc3)c(C#N)c(=O)n2NS(=O)(=O)c2ccc(C)cc2)cc1"
Resp: 54.1 µM (inactive)

Req: Fill in reported GI50 for this entry: CC1CC[C@@]2(OC1)OC1C[C@H]3[C@@H]4CC=C5CC(OC6OC(CO)C(OC7OC(CO)C(O)C(OC8OCC(O)C(O)C8O)C7OC7OC(CO)C(OC8OC(C)C(OC9OC(C)C(O)C(O)C9O)C(O)C8O)C(O)C7O)C(O)C6O)CCC5(C)[C@H]4CCC3(C)C1[C@@H]2C (some centres not stated)
Resp: 4.28 µM (inactive)

Req: Fill in reported GI50 for this entry: Nc1ccn(C2CCC(CO)O2)c(=O)n1 (configuration not stated)
Resp: > 1000 µM (inactive)

Req: Fill in reported GI50 for this entry: CCC(=O)Nc1ccc(N2C(=O)C(Cl)C2c2ccc(SC)cc2)cc1 (configuration not stated)
Resp: > 100 µM (inactive)

Req: Fill in reported GI50 for this entry: "N#CCCN(CCC#N)c1ccc(C(=N/c2ccc(F)cc2)/N=N/c2ccc(Cl)cc2)cc1"
Resp: > 100 µM (inactive)

Req: Fill in reported GI50 for this entry: "CCOC(=O)c1c(NNc2ccccc2)nc2ccccc2c1-c1ccccc1"
Resp: 27.3 µM (inactive)

Req: Fill in reported GI50 for this entry: "O=c1c2cccnc2ncn1CCN1CCCCC1"
Resp: > 100 µM (inactive)

Req: Fill in reported GI50 for this entry: "CCOC(=O)C(=O)NNc1nc2c(s1)C(=O)c1ccccc1C2=O"
Resp: 2.08 µM (inactive)

Req: Fill in reported GI50 for this entry: "O=C(Nc1ccc(Cl)cc1Cl)C(=O)Nn1c(S)nc2ccccc2c1=O"
Resp: > 100 µM (inactive)

Req: Fill in reported GI50 for this entry: CCCOC1OC(CS(=O)(=O)O)C(OC(C)=O)C(OC(C)=O)C1OC(C)=O (configuration not stated)
Resp: > 100 µM (inactive)

Cited source for all entries: ChEMBL document CHEMBL1201862
